# Test system: MS2 coat protein
# procedure_summary: apparent KD of MS2 coat protein, switch ON state; designed switch direction (-1 OFF switch, 1 ON switch): 1; higher = weaker reporter binding
# run_conditions: FMN input: 0 or 200 uM; Eterna round: R93 (includes R88 designs)
readout_name: apparent KD of MS2 coat protein (µM)
Write the answer as a number in µM, unit excluded.

Query :: Requested field: apparent KD of MS2 coat protein. Item: AUAAUAAUAAGGUAGGAUAUACUAAAGUAAACAUGAGGAUCACCCAUGUAAAGAAAAAAACUCAUGUAGAAGGGCCAGAAAUAAA [moonwalk 3]
Result :: 0.0532

Query :: Same question, AAGAAACAUGAGGAUCACCCAUGUAAGAUAAACACAGGAUAUGCGAAAAGAAACAAAUAAGCAGAAGGGUGAAGAA [Mat - Same State 1 - Tesla mod - 64] this time
Result :: 0.0163

Query :: GGGAGACAUGAGGAUCACCCAUGUGAGAAGAGGCGAGGAUAUCGAAAGAAAGAAGAGAAACGAGAAGGCGCGAGUG [salish99-SS1-058] , same question.
Result :: 0.0648

Query :: Param item: AAAGACAUAGUUCAGGAUAUGGUAAUAGUCACAUGAGGAUCACCCAUGUGCAUUUAUAUGCGCGAUCAGAAGGGAGGUAAAAAAA [SameState2 Malc#16]
Result :: 0.0175

Query :: Now consider CCGAUACAUGAGGAUCACCCAUGUUAGGUAGAACAAGGAUAUCUAGAUAGAUAAAAAUAUAGAGAAGGUGUAUAAC [JR_SS001_Sub208] .
Result :: 0.0171

Query :: Here is the next sequence: AAAUAACAUGAGGAUCACCCAUGUUACGACGUUACAGGAUAUGUGGGUGAAAAUAGCAUGACAGAAGGGUACCGUA [SameState1 Malc#37]
Result :: 0.0685

Query :: What about this sequence? AUAAAUAAAAGUGAGGAUAUCCAAAAAAAAACAUGAGGAUCACCCAUGUAAAAGAAAAUAAAAUGGGAGAAGGCACAAAAUAAAU [SS2 M 10]
Result :: 0.0119

Query :: Also AAAAAACAUGAGGAUCACCCAUGUGCAAAAUUCGCAGGAUAUUUCUCAAUUAAAUGAGAGGAAGAAGGGUGAAAAA [Nob's Hobby 27 - Jieux - Same State 1] , if possible.
Result :: 0.0215

Query :: Another sequence to look at: GAAGAACAUGAGGAUCACCCAUGUGAGAACAUGGGAGGAUAUACGAGGACGAAAGUCAAAGUAGAAGGCCUAAGAG [Garnet 87]
Result :: 0.104

Query :: Also need AGAAAUAAAAGGCAGGAUAUCCAAAAGAAAACAUGAGGAUCACCCAUGUAAAAGAAAAAAAAAUGGGAGAAGGGCCAAAUAAAGA [Mat - Same State 2 - Eli mod - D90] , thanks.
Result :: 0.0207

Query :: Input AUAAAACAUGAGGAUCACCCAUGUAAAAAUAUGGGAGGAUAUACGAAAUAAAAUAAAUACGUAGAAGGCCUAAAAA [SS! MT 20]
Result :: 0.0202

Query :: Also AAAAAACAUGAGGAUCACCCAUGUAAAAAUAUGGGAGGAUAUACAAACACGAAAGUGAAAGUAGAAGGCCUAAAAA [SS! MT 17] , if possible.
Result :: 0.019
